Molecular target: Human Prostanoid EP4 Receptor (Homo sapiens, UniProt P35408)
Construct: expressed in transfected cells; host or cells: HEK-293 cells (membrane homogenates)
Sequence (P35408 whole entry): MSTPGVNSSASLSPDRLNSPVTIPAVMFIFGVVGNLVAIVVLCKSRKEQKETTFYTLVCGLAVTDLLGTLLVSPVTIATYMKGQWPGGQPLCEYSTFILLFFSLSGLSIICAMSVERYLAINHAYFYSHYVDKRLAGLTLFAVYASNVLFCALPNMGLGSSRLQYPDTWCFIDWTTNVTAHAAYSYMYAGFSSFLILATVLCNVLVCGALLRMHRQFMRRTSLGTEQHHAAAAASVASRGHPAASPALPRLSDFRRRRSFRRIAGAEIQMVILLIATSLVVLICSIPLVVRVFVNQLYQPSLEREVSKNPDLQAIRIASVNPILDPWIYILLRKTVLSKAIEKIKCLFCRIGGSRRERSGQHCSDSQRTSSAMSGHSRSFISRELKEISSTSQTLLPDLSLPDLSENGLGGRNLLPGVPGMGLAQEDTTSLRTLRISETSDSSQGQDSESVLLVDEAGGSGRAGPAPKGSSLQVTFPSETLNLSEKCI
Assay: Radioligand binding assay, agonist site of human prostanoid EP4 receptor in transfected HEK-293 cells
Conditions: 0.5 nM [3H]PGE2, HEK-293 cell membrane homogenates; read-out: hEP4 receptor binding (nM) IC50
Measured property: IC50 (nM)
A number alone suffices; assume nM.

Q: State IC50 (Human Prostanoid EP4 Receptor (Homo sapiens, UniProt P35408)) of C[C@@H](CCCc1ccccc1)[C@H](O)/C=C/[C@H]1CC(F)(F)C(=O)N1CCCCCCC(=O)O [Example 6D] .
Result: 2.4

Values compiled from patent US10729810B2.
